Assay Method Text: recombinant UMI read abundance after kanamycin selection (control-corrected) (log10(CPM+1)); higher = more efficient recombination; extreme values may be limits of the assay; sequences stand for … in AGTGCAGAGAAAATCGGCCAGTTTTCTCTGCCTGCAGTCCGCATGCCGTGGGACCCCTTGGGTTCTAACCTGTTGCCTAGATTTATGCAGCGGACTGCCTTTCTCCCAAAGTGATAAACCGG…AGGTTGGTTTCACT; site = the 11-nt donor;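 further: IS621 bridge recombinase in Escherichia coli cells against a fixed T5 target plasmid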
Property: recombinant UMI read abundance (log10)
One number for each entry.

Answered examples (2):
> print(dat)
                              sequence.code  endpoint.value
1  TCAGCTGCATGGACCGGTTTTCCCGGTAATCCGTATTTGTG (site TCAGCTGCTCA)           0.637
2  GGGGTGGCATGGACCGGTTTTCCCGGTAATCCGTATTTGGT (site GGTGTGGCTAC)           0.146

Read the next record carefully.
Look up recombinant UMI read abundance (log10): CCATGCTCATGGACCGGTTTTCCCGGTAATCCGTATTTGAA (site CAATGCTCTTT) 0.0121

###

Assay Method Text: recombinant UMI read abundance after kanamycin selection (control-corrected) (log10(CPM+1)); higher = more efficient recombination; extreme values may be limits of the assay; sequences stand for … in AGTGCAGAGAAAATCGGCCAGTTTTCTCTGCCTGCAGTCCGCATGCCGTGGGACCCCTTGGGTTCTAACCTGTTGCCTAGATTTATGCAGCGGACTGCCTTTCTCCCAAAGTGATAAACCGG…AGGTTGGTTTCACT; site = the 11-nt donor
Classify by measured recombinant UMI read abundance (log10): 1 (yes) if it is equal to or exceeds 0.4, 0 (no) if it is smaller.

Solved cases below.
> print(dat)
                              sequence.code  category
1  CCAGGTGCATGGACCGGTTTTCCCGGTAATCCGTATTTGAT (site CCCGGTGCTAT)   1 (yes)
2  CGGATTCCATGGACCGGTTTTCCCGGTAATCCGTATTTGTT (site CGGACTCCTAA)    0 (no)
3  AATTTAGCATGGACCGGTTTTCCCGGTAATCCGTATTTGTC (site AATTTAGCTGA)   1 (yes)
4  ACCCACACATGGACCGGTTTTCCCGGTAATCCGTATTTGTA (site ACCCACACTTA)   1 (yes)
5  TGGGTCCCATGGACCGGTTTTCCCGGTAATCCGTATTTGGT (site TGGGTCCCTAC)    0 (no)

Could you tell me if the measured recombinant UMI read abundance (log10) of GGGGCACCATGGACCGGTTTTCCCGGTAATCCGTATTTGAA (site GGGGCACCTTA) reaches 0.4 or more? 0 (no)

Note, next up: ACAGTTTCATGGACCGGTTTTCCCGGTAATCCGTATTTGCA (site ACAGTCTCTTG) 1 (yes)

Note, next up: CTCGGTCCATGGACCGGTTTTCCCGGTAATCCGTATTTGCA (site CTCGGTCCTTG) 1 (yes)

Note, next up: ACAGTTTCATGGACCGGTTTTCCCGGTAATCCGTATTTGCA (site ACAGTTTCTTG) 1 (yes)

Note, next up: AGGTTACCATGGACCGGTTTTCCCGGTAATCCGTATTTGTG (site AGGTTTCCTCA) 0 (no)

Note, next up: CCTACTGCATGGACCGGTTTTCCCGGTAATCCGTATTTGCC (site TCTACTGCTGG) 0 (no)
